molecular target: GABAA α5/β3/γ2 (Homo sapiens (Human), UniProt P18507+P31644); assay: Binding assay (Scintillation Proximity Assay, [3H]-Ro15-1788); settings: membranes of HEK293 cells expressing GABAA α5/β3/γ2
Sequence (P31644 32-462): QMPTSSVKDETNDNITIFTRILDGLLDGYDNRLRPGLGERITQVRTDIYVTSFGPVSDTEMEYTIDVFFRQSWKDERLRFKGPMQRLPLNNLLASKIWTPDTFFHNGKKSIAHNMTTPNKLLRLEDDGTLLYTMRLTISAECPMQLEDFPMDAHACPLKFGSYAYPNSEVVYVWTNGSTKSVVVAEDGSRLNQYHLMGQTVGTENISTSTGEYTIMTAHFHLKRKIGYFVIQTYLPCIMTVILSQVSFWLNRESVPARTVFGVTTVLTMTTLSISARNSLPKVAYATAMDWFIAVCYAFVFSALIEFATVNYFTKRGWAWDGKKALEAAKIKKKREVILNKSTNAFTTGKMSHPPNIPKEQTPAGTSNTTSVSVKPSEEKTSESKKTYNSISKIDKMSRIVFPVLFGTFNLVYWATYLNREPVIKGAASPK
Sequence (P28472 26-473 partner): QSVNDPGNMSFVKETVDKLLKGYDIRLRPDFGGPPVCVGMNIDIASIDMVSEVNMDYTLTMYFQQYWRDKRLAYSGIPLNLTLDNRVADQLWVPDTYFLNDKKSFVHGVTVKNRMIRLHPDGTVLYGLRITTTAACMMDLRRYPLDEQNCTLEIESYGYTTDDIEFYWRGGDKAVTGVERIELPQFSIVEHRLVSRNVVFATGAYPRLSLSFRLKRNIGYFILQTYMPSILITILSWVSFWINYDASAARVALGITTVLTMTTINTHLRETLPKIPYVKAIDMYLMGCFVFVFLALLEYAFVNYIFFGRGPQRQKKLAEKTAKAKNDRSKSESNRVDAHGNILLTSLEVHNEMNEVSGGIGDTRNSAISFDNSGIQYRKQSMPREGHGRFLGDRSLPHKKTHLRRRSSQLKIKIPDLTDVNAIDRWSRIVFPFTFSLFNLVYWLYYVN
Sequence (P18507 40-475): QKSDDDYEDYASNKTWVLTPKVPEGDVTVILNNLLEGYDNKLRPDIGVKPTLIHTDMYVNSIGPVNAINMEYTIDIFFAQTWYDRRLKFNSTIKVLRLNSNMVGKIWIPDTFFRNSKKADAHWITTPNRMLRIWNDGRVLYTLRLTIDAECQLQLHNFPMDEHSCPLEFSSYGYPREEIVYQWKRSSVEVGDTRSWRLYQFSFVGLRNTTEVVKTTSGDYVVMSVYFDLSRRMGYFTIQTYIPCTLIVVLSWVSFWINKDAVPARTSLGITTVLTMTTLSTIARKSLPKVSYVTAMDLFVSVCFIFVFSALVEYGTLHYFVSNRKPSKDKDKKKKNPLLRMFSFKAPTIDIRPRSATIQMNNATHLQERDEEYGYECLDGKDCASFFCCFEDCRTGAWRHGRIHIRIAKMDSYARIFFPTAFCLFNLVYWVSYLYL
Rule: Ki below 30 nM gives Condition met, anything at or above gives Condition not met.

Identify whether the molecule "CN1C(=O)COc2ncc(Nc3ccc4ncn(CC5CC5)c4n3)cc21" records Ki below 30 nM.
Condition not met

Identify whether the molecule "Cc1cc(Nc2cc3c(cc2Cl)N(C)C(=O)CO3)nc2c1ncn2CC1CC1" records Ki below 30 nM.
Condition met

Identify whether the molecule "O=C1COc2cc(Nc3cc4c(cn3)ncn4CC3CC3)ccc2N1C1CC1" records Ki below 30 nM.
Condition not met

Identify whether the molecule "CN1C(=O)COc2cc(Nc3cc4c(cc3F)ncn4CCC3CC3)cnc21" records Ki below 30 nM.
Condition met

Identify whether the molecule "COCCN1C(=O)COc2cc(Nc3ncc4ncn(CC5CC5)c4n3)ccc21" records Ki below 30 nM.
Condition not met

Identify whether the molecule "Cc1cc(Nc2ccc3c(n2)OCC(=O)N3C)nc2c1ncn2CC1CC1" records Ki below 30 nM.
Condition met

Identify whether the molecule "CN1C(=O)COc2cc(Nc3cc4c(cc3F)ncn4CC3CC(F)(F)C3)cnc21" records Ki below 30 nM.
Condition met

Identify whether the molecule "Cn1c(=O)oc2cc(Nc3cnc4ncn(CC5CC5)c4n3)ccc21" records Ki below 30 nM.
Condition not met

Identify whether the molecule "CN1C(=O)COc2cc(Nc3cnc4ncn(CC5CC5)c4n3)ccc21" records Ki below 30 nM.
Condition met

---

assay: Cryopreserved hepatocyte stability; format: in vitro ADME; settings: human hepatocytes 0.5 million cells/mL, 1 μM, 37° C.; compound remaining; time point not stated
Test readout: hepatocyte stability (%)
A number alone suffices; assume %.

Respond only with hepatocyte stability (%) recorded for CN1C(=O)COc2nc(Nc3cc(C(F)(F)F)c4ncn(CC5CC5)c4n3)ccc21 [Example 151]
101

Respond only with hepatocyte stability (%) recorded for Cc1nc(Nc2ccc3c(n2)OCC(=O)N3C)cc2c1ncn2CC1CC1 [Example 124]
75

Respond only with hepatocyte stability (%) recorded for Cc1c(F)c(Nc2cc3c(cn2)N(C)C(=O)CO3)cc2c1ncn2CC1CC1 [Example 87]
103

Respond only with hepatocyte stability (%) recorded for Cc1c(F)c(Nc2ccc(-n3ccnc3)nc2)cc2c1ncn2CC1CC1 [Example 88]
81

Respond only with hepatocyte stability (%) recorded for Cc1nc(Nc2cnc3c(c2)OCC(=O)N3C)cc2c1ncn2CC1CC1 [Example 120]
85

Respond only with hepatocyte stability (%) recorded for Fc1cc(Nc2cc3c(ncn3CC3CC3)c(F)c2F)ccc1-n1ccnc1 [Example 95]
96

---

target: GABAA α1/β3/γ2 (Homo sapiens (Human), UniProt P14867+P18507); assay: Functional assay (PatchXpress automated patch-clamp), α1 subtype; assay type: cell-based; conditions: % change of GABA EC20 response; compound 1 μM; HEK293 cells
Sequence (P14867 28-456, one chain of several): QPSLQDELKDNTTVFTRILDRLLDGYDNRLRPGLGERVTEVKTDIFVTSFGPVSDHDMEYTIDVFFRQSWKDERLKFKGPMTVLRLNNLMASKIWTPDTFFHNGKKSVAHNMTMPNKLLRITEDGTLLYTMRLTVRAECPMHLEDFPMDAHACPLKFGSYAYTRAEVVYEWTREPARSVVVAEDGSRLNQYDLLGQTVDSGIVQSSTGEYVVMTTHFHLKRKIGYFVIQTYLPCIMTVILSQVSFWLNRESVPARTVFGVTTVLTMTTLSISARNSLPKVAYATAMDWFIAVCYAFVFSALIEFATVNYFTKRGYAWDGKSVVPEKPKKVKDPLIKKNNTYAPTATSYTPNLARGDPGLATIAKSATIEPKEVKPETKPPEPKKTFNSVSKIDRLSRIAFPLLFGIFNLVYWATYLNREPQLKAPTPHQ
Test readout: inhibition at 1 µM (%)
A number alone suffices; assume %.

Give the observed inhibition at 1 µM of CN1C(=O)COc2ncc(Nc3ccc4ncn(CC5CC5)c4n3)cc21 [Example 111] for GABAA α1/β3/γ2 (Homo sapiens (Human), UniProt P14867+P18507).
-0.3

Give the observed inhibition at 1 µM of O=C1COc2cc(Nc3cc4c(cn3)ncn4CC3CC3)ccc2N1C1CC1 [Example 37] for GABAA α1/β3/γ2 (Homo sapiens (Human), UniProt P14867+P18507).
-5

Give the observed inhibition at 1 µM of Cc1cc(Nc2ccc3c(n2)OCC(=O)N3C)nc2c1ncn2CC1CC1 [Example 159] for GABAA α1/β3/γ2 (Homo sapiens (Human), UniProt P14867+P18507).
4.8

Give the observed inhibition at 1 µM of CN1C(=O)COc2cc(Nc3cc4c(cc3F)ncn4CCC3CC3)cnc21 [Example 67] for GABAA α1/β3/γ2 (Homo sapiens (Human), UniProt P14867+P18507).
-0.5

Give the observed inhibition at 1 µM of COCCN1C(=O)COc2cc(Nc3ncc4ncn(CC5CC5)c4n3)ccc21 [Example 46] for GABAA α1/β3/γ2 (Homo sapiens (Human), UniProt P14867+P18507).
-0.9

Give the observed inhibition at 1 µM of CN1C(=O)COc2cc(Nc3cc4c(cc3F)ncn4CC3CC(F)(F)C3)cnc21 [Example 52] for GABAA α1/β3/γ2 (Homo sapiens (Human), UniProt P14867+P18507).
7.5

Give the observed inhibition at 1 µM of CN1C(=O)COc2cc(Nc3cnc4ncn(CC5CC5)c4n3)ccc21 [Example 42] for GABAA α1/β3/γ2 (Homo sapiens (Human), UniProt P14867+P18507).
0.2

Give the observed inhibition at 1 µM of Cc1cc(Nc2cc3c(cc2Cl)N(C)C(=O)CO3)nc2c1ncn2CC1CC1 [Example 160] for GABAA α1/β3/γ2 (Homo sapiens (Human), UniProt P14867+P18507).
9.8

Give the observed inhibition at 1 µM of Cn1c(=O)oc2cc(Nc3cnc4ncn(CC5CC5)c4n3)ccc21 [Example 43] for GABAA α1/β3/γ2 (Homo sapiens (Human), UniProt P14867+P18507).
8
